Below, each entry is listed alongside its reported EC50.
# TARGET_DESC: μ-opioid receptor (Homo sapiens (Human))
# ASSAY_PROTOCOL: μ-opioid receptor [35S]GTPγS functional assay, HEK-293 or CHO cells
# Format: biochemical

Example results:
O=C(c1cc2c([nH]c1=O)C[C@]13CCN(CC4CC4)[C@H](Cc4ccc(O)cc41)[C@@H]3C2)N1CCS(=O)(=O)CC1 [Compound 60]; > 20 µM
COc1ccc2c(c1)[C@]13CCN(CC4CC4)[C@H](C2)[C@]1(O)Cc1cc(C(N)=O)c(=O)[nH]c1C3 [Compound 4]; > 20 µM
COC(=O)c1cc2c([nH]c1=O)C[C@]13CCN(CC4CC4)[C@H](Cc4ccc(OC)cc41)[C@@H]3C2 [Compound 3]; 0.0349 µM
NC(=O)C[C@H](NC(=O)c1cc2c([nH]c1=O)C[C@]13CCN(CC4CC4)[C@H](Cc4ccc(O)cc41)[C@]3(O)C2)C(N)=O [Compound 20]; > 20 µM
O=C(O)c1cc2c([nH]c1=O)C[C@]13CCN(CC4CC4)[C@H](Cc4ccc(O)cc41)[C@@H]3C2 [Compound 11]; > 20 µM
NC(=O)[C@H](Cc1ccccc1)NC(=O)c1cc2c([nH]c1=O)C[C@]13CCN(CC4CC4)[C@H](Cc4ccc(O)cc41)[C@]3(O)C2 [Compound 17]; > 20 µM
NC(=O)[C@@H]1CCCN1C(=O)c1cc2c([nH]c1=O)C[C@]13CCN(CC4CC4)[C@H](Cc4ccc(O)cc41)[C@]3(O)C2 [Compound 19]; > 20 µM
NC(=O)c1cc2c([nH]c1=O)C[C@]13CCN(CC4CC4)[C@H](Cc4ccc(O)cc41)[C@]3(O)C2 [Compound 5]; > 20 µM
NC(=O)CNC(=O)c1cc2c([nH]c1=O)C[C@]13CCN(CC4CC4)[C@H](Cc4ccc(O)cc41)[C@@H]3C2 [Compound 21]; 0.00173 µM
NC(=O)CNC(=O)c1cc2c([nH]c1=O)C[C@]13CCN(CC4CC4)[C@H](Cc4ccc(O)cc41)[C@]3(O)C2 [Compound 14]; > 20 µM

Input line: Given the compound O=C(c1cc2c([nH]c1=O)C[C@]13CCN(CC4CC4)[C@H](Cc4ccc(O)cc41)[C@@H]3C2)N1Cc2ccccc2C1 [Compound 64] , write its reported EC50.
Output line: > 20 µM

Input line: Given the compound COc1ccc2c(c1)[C@]13CCN(CC4CC4)[C@H](C2)[C@@H]1Cc1cc(C(N)=O)c(=O)[nH]c1C3 [Compound 6] , write its reported EC50.
Output line: 0.528 µM

Input line: Given the compound O=C(N[C@H]1c2ccccc2C[C@H]1O)c1cc2c([nH]c1=O)C[C@]13CCN(CC4CC4)[C@H](Cc4ccc(O)cc41)[C@@H]3C2 [Compound 62] , write its reported EC50.
Output line: > 20 µM
